We begin with a simple list: items and their reported Herbicidal action against [%] POLCO.
- Tested on: POLCO
- Experiment Summary: Post-emergence herbicidal action against POLCO
- Assay type: in vivo, Polygonum convolvulus
- Test Conditions: application rate 80 g/ha, rated visually about 3 weeks after treatment
Measured Property: Herbicidal action against [%] POLCO (%)

                                   compound                    measured_property  reported_value
0  C=CC1(C(=O)NC2C=CC(C(=O)OC(C)C)C2)CC(c2cc(F)cc(F)c2)=NO1 (mixture of isomers)  Herbicidal action against [%] POLCO              80
1  C=CC1(C(=O)N[C@H]2CC=C(C(=O)OCC)C2)CC(c2cc(F)cc(F)c2)=NO1 (stereo partly shown)  Herbicidal action against [%] POLCO              80
2  O=C(C1C=CC(NC(=O)C2(C(F)(F)F)CC(c3cc(F)cc(F)c3)=NO2)C1)N1CCCO1 (mixture of isomers)  Herbicidal action against [%] POLCO              90
3  C=CC1(C(=O)N[C@H]2C=C[C@@H](C(=O)OCCC(F)(F)F)C2)CC(c2cc(F)cc(F)c2)=NO1 (stereo partly shown)  Herbicidal action against [%] POLCO              90
4  C=CC1(C(=O)N[C@H]2CC=C(C(=O)OCCOCC)C2)CC(c2cc(F)cc(F)c2)=NO1 (stereo partly shown)  Herbicidal action against [%] POLCO              90
5  CC1(C(=O)NC2C=CC(C(=O)OCCCl)C2)CC(c2cc(F)cc(C#N)c2)=NO1 (mixture of isomers)  Herbicidal action against [%] POLCO              90
6  O=C(OCCCl)C1C=CC(NC(=O)C2(C(F)(F)F)CC(c3cc(F)cc(F)c3)=NO2)C1 (mixture of isomers)  Herbicidal action against [%] POLCO              90

----------
- Tested on: ECHCG
- Experiment Summary: Post-emergence herbicidal action against ECHCG
- Assay type: in vivo, Echinochloa crus-galli
- Test Conditions: application rate 80 g/ha, rated visually after about 3 weeks
Here the recorded Herbicidal action against [%] ECHCG is given for each entry.
Measured Property: Herbicidal action against [%] ECHCG

In [3]: df
Out[3]:
                                   molecule  reported_value
0  CCOC(=O)C1C=CC(NC(=O)C2(C(F)(F)F)CC(c3cc(OC)cc(OC)c3)=NO2)C1 (mixture of isomers)             80%
1  COC(=O)[C@@H]1C=C[C@H](NC(=O)C2(C(F)(F)F)CC(c3ccccc3)=NO2)C1 (stereo partly shown)             80%
2  N#Cc1cc(F)cc(C2=NOC(C(=O)NC3C=CC(C(=O)O)C3)(C(F)(F)F)C2)c1 (mixture of isomers)             80%
3  COC(=O)C1C=CC(NC(=O)C2(C(F)(F)F)CC(c3cc(F)cc(F)c3)=NO2)C1 (mixture of isomers)             90%
4  C[C@]1(C(=O)N[C@@H]2C=C(C(=O)O)CC2)CC(c2cc(F)cc(F)c2)=NO1             90%
5  COCCOC(=O)C1C=CC(NC(=O)C2(C(F)(F)F)CC(c3cc(F)cc(C#N)c3)=NO2)C1 (stereo not shown) [Example I-100]             90%
6  CC(C)(C#N)NC(=O)C1C=CC(NC(=O)C2(C(F)(F)F)CC(c3cc(F)cc(F)c3)=NO2)C1 (mixture of isomers)             80%
